# percent of parent values compiled below
B1: Tpz1, two-hybrid fusion, wild type (construct limits not stated) [S. pombe] / Ccq1, two-hybrid fusion, wild type (construct limits not stated) [S. pombe] (parent complex)
chain 1: MSNCLKHPWLENGLLNLIKNADVLPIRVFKCQPLQIFEYIRYEHPIRCKLSDTEFYIEAEFSSQSISDLNNFTEKRITSLRGGIVTLGNFLIHLIPSQSGIIPWIQVESFNFQGCEGAVFGNPKAITTSALFNALLQSPYLAALANEFNRSIKEGSSYQEASLSQQEKPNDNTSNSRDIKNNIQFHWKNMTSLSIEECIIPKGQQLILEKESEENTTHGIYLEERKMAQGLHNSVSETPEVKQEDNDEDLDAYSWSSSTDSAGEIPSLPTNRKILEKIAEKPPPFESPLEDDETPDQTNEHEANQVNVSQLPLNPRGSGISGRPVESTEQLNSSLTIERSQSIQSTDSKQRVETQSHRRSKIEIFDAQDELFDRSICTTIDDSTGKLLNAEETPIKTGDLHSTSASSVISCTPPAINFTSDICNEQIELEYKRKPIPDYDFMKGLETTLQELYVEHQSKKRRLELFQLTNNHQKNSEACEMCRLGLPHGSFFELLRDWKKIEEFRNKS
chain 2: MSEINDFTNSIIINESDTKYEVYSEVNSSNRWIAKEDCPSPLEDVWLLKLAGHKRKLEEPLSCMRNEEPASKQREIEKFLRTDLDHSENDFLTQEVDEFPSTQQLFPIPLQNDTAFDSSEESITKSSKSSFSVLDIGLPMSALQRKMMHRLVQYFAFCIDHFCTGPSDSRIQEKIRLFIQSAHNIAKHPSLYDTEVRNPSAAESTNSHVSLDASNFSSYAENSSKFLFLQELFKNLSPSYSKTFFLFISNQFLANTLTQWLKSQNIDAELWAEEDAKTSQHPAIWICVSKKAPSASHFLQSCPDLSATIFYDIEAYMSVTSSLPSIQSLVLRLIHLGSIEHAIKCFQSSYNASFLVNIVGVVATLSSSSEENSEASNLSTLFEKSGNFEEILGSESHSSITEKTRDIAKNVATWLKNGENFSSWPLPPLMDLASLSVAEPRDSQPSVSQVNDTFVKSSDSTFPSSQSMQSPSKLHSLTSNATDLLSSSSLKKNFFSQQEADEVELSNNYDLQGAAVQYLQRRLRMVEDELHEAINSKNVQQSRSEELEQQISKLTDNLQEYRNTVRELKLDLEKSKKKNEDLSKLEVEKVEEIANLKKELTHLAKQQEFGFKYVQEFSNEDLQGKLIEANEKNYKLTQLLKTQKEDADFITNQYQNASTFAAEQSKEVAKLQAECKRLQAINSKVMEEVKVYNDSRVEALLAKVSSLEETLKILEQKSLPKFTPHNQSPRIIDSN

Variants of: B1
measurement.description: yeast two-hybrid (β-galactosidase); parent: 100; read off a plot

>>> df
   mutation_notation  measured_result
0      chain 2 F155R         ~13 % WT
1      chain 2 I185R         ~13 % WT
2      chain 2 L177R         ~85 % WT
3      chain 2 E221R         ~31 % WT
4      chain 2 L143R         ~16 % WT
5      chain 2 P189R         ~13 % WT
6      chain 2 M147R         ~13 % WT

With those in mind, consider the next variant.
Requested read-out: percent of parent. Entry: chain 2 L151R ~13 % WT

# credit: paper PMC9333443
